- test-system: T1, interleukin-23 receptor (IL-23R), Q5VWK5
- T1 chain: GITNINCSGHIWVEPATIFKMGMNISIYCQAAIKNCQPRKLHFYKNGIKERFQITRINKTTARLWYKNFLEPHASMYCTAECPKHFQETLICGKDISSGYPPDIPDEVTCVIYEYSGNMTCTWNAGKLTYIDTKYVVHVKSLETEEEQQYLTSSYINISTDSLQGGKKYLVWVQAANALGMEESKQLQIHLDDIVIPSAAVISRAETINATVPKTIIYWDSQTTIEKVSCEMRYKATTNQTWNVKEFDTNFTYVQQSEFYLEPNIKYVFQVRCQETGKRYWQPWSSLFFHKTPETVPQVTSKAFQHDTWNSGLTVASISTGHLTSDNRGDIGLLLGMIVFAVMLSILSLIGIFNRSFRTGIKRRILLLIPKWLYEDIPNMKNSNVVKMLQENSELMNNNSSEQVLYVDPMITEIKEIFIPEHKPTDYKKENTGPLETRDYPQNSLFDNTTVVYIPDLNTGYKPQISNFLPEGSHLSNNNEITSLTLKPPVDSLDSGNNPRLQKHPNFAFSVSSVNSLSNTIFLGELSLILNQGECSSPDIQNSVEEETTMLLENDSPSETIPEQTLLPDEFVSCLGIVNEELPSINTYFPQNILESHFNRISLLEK
- assay-name: cell-based or functional assay
Positions of bridges follow the written chain, without caps; N, C: chain ends. Non-standard residues stand in square brackets, D forms with d. No end group written: not given here. Trp(7-Me) = Cc1cccc2c(C[C@H](N)C(=O)O)c[nH]c12; 3Pal = N[C@@H](Cc1cccnc1)C(=O)O; Pen = CC(C)(S)[C@H](N)C(=O)O; lipid = not defined here; Thp = NC1(C(=O)O)CCOCC1; Sar = CNCC(=O)O
observation-type: PBMC pSTAT3 IC50

Data request: Give a short answer stating reported PBMC pSTAT3 IC50 for [Pen]NT[Trp(7-Me)]K(Ac)[Pen][2‑amino‑3‑(4-(2-aminoethoxy)phenyl)propanoic acid][2‑amino‑3‑(6-hydroxynaphthalen-2-yl)propanoic acid][Thp]K(Ac)N[3Pal][Sar]K(lipid) (disulfide 1-6 (inferred); ends not checked; also: K14: lipidated lysine) [SEQ ID NO: 278] .
Data returned: < 1 nM

With those in mind, consider the next binder.
Data request: Give a short answer stating reported PBMC pSTAT3 IC50 for [(R)‑3‑carboxy‑2‑(4-(((R)-5-carboxy-5-hydrazineylpentyl)amino)-4-oxobutanamido)‑N,N,N‑trimethylpropan‑1‑aminium][Pen]NT[Trp(7-Me)]K(Ac)[Pen][2‑amino‑3‑(4-(2-aminoethoxy)phenyl)propanoic acid][2‑amino‑3‑(6-hydroxynaphthalen-2-yl)propanoic acid][Thp]EN[3Pal][Sar] (disulfide 2-7 (inferred); ends not checked) [SEQ ID NO: 264] .
Data returned: < 0.01 nM
